Reported standardized gMFI values are given for each entry in this list.
# testTarget: T1, HLA-A2 / homologous peptide P2RY8 complex on T2 cells (human)
# T1 construct: whole, on cells; also called T2 cells supplemented with homologous peptide P2RY8
# testName: flow cytometry on peptide-pulsed T2 cells, scFv 100 nM;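 further: scFv binding read as gMFI and normalized to the level of HLA/peptide complex displayed on T2 cells, with homologous 9-mer peptides used to probe specificity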
No unit in the answer, please; the number alone is enough.

binder	value
NYA-2023 (scFv) scFv: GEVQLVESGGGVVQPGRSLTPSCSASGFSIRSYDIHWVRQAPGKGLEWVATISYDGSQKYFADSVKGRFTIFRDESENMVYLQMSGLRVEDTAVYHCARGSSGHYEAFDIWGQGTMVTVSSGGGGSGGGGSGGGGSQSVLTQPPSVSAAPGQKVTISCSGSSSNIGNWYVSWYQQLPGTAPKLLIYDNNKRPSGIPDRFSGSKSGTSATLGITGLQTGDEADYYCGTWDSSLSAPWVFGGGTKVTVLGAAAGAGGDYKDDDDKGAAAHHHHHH	0.7

Given the entry NYA-2047 (scFv) scFv: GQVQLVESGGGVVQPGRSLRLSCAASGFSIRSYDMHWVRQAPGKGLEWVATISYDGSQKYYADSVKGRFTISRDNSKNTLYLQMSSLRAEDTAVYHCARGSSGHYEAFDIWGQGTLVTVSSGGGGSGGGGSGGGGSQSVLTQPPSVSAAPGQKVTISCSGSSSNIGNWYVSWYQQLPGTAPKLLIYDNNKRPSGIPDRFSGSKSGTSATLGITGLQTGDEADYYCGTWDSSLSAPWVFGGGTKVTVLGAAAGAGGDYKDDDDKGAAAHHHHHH , report its measured standardized gMFI.
0.72
